molecular target: SLC41A1-related Na+/Mg2+ exchanger (Homo sapiens, UniProt Q8IVJ1); assay: Modulators of SLC41A1-related Na+/Mg2+ exchanger activity (Table 3); type: cell-based; settings: at the dosage given, where given;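 note: listed substances are classed by whether they raise or lower SLC41A1-related Na+/Mg2+ exchanger activity, acting directly on the protein or through cellular signalling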
Sequence (Q8IVJ1 whole entry): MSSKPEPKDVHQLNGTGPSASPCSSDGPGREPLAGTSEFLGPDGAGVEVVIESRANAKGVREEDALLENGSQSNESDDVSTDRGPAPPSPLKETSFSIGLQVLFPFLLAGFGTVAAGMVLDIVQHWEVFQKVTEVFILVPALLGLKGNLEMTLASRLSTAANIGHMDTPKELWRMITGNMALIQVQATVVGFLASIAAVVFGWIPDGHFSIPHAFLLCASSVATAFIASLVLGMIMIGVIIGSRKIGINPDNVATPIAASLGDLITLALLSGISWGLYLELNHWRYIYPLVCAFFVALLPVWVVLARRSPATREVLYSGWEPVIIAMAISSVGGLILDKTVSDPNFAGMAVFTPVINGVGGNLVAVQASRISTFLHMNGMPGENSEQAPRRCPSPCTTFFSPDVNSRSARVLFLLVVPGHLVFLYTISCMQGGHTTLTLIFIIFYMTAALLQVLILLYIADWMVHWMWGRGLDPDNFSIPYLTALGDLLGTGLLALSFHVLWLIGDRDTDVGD
propertyMeasured: Effect on Na+/Mg2+ exchanger

# annotated cases, reported Effect on Na+/Mg2+ exchanger shown
compound	value
NCCS(=O)(=O)O	inhibition
CCCC(=O)O[C@@H]1[C@@H](C)[C@@]2(O)[C@@H](C=C(CO)C[C@]3(O)C(=O)C(C)=C[C@@H]23)[C@@H]2C(C)(C)[C@]12OC(=O)CCC [Phorbol 12,13-dibutyrate]	activation
COCC(/C(C)=C/C(=N\O)C(N)=O)[N+](=O)[O-] (stereo not shown)	activation
C[C@@H]1C[C@@]2(NC(=O)CS2)[C@]2(O)O[C@@H]3C[C@@]4(CO)[C@@H](CC[C@@H]5[C@@H]4CC[C@]4(C)[C@@H](C6=CC(=O)OC6)CC[C@]54O)C[C@H]3O[C@@H]2O1	inhibition
NC[C@H](O)c1ccc(O)c(O)c1 [Norepinephrine]	activation

[ask] Note Effect on Na+/Mg2+ exchanger for the compound shown: O=c1onc2cnc3ccccc3n12 [ODQ, 1H-[1,2,4]oxadiazolo[4,3-α]quinoxaline-1]
[reply] inhibition

[ask] Quick one: give measured Effect on Na+/Mg2+ exchanger for C[C@@H]1O[C@@H](O[C@H]2C[C@@H](O)[C@]3(CO)[C@H]4[C@H](O)C[C@]5(C)[C@@H](C6=CC(=O)OC6)CC[C@]5(O)[C@@H]4CC[C@]3(O)C2)[C@H](O)[C@H](O)[C@H]1O
[reply] inhibition
